test system: Fibroblast; test: Multiplex assay against human fibroblast; format: toxicity, cell-based; conditions: 48 h, 1 µM, compound concentration 1 uM, replicate 2
Reported endpoint: Population Mitochondria Different-Phenotype (%)

{"columns": ["Molecule", "U", "Reported measurement"],
 "data": [
  ["CN1CCN(c2ccc(OC(F)(F)F)c(Nc3ncc4c(n3)-c3c(c(C(N)=O)nn3CCO)CC4)c2)CC1", "%", 1],
  ["O=C1NCN(c2ccccc2)C12CCN(CCCOc1ccc(F)cc1)CC2 [SPIRAMIDE]", "%", 0],
  ["C=CC(=O)Nc1ccc2ncnc(Nc3ccc(OCc4cccc(F)c4)c(Cl)c3)c2c1.Cc1ccc(S(=O)(=O)O)cc1", "%", 8],
  ["CN1CCC[C@@H]1CCO[C@](C)(c1ccccc1)c1ccc(Cl)cc1.O=C(O)/C=C/C(=O)O [CLEMASTINE FUMARATE]", "%", 14]
]}

* * *

The entries below are paired with their reported Population Mitochondria Different-Phenotype (%).
system: Fibroblast; experiment: Multiplex assay against human fibroblast; format: toxicity, cell-based; conditions: 24 h, 1 µM, compound concentration 1 uM, replicate 2
Reported endpoint: Population Mitochondria Different-Phenotype (%)

{"columns": ["Molecule", "Reported measurement"],
 "data": [
  ["CC(C)(O)CNc1ncc(-c2ccnc(Nc3ccnc(Cl)c3)n2)c(CC2CC2)n1", 20],
  ["CN1CCN(CCOc2cc(OC3CCOCC3)c3c(Nc4c(Cl)ccc5c4OCO5)ncnc3c2)CC1", 13],
  ["CN1CCN(c2ccc(OC(F)(F)F)c(Nc3ncc4c(n3)-c3c(c(C(N)=O)nn3CCO)CC4)c2)CC1", 32],
  ["C[C@@]1(C(=O)Nc2ccc(F)nc2)CCCN1c1nc(Nc2cc(C3CC3)n[nH]2)c2cccn2n1", 40],
  ["Cc1cc(C)cc(-c2cnc3cc(Cl)c(-c4cccc(O)c4)cc3c2OCCCN)c1", 78],
  ["OC1(c2ccc(Cl)cc2)CCN(Cc2c[nH]c3ccccc23)CC1", 13],
  ["COc1ncc(-c2ccc3nccc(-c4ccnnc4)c3c2)cc1NS(=O)(=O)c1ccc(F)cc1F", 17],
  ["c1cn2cc(-c3ccc4cn[nH]c4c3)nc(Nc3ccc(N4CCOCC4)cc3)c2n1", 15]
]}

* * *

system: HEK-293T; test: Multiplex assay against HEK293T; format: toxicity, cell-based; details: human, 48 h, 1 µM, compound concentration 1 uM, replicate 1;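 on Population Tubulin-Different-Phenotype (%): share of the cells with healthy nuclei that show this phenotype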
Label key: Y means Population Tubulin-Different-Phenotype (%) under 40%; N means Population Tubulin-Different-Phenotype (%) of 40% or more.

{"columns": ["Molecule", "Label class"],
 "data": [
  ["C=CC(=O)Nc1cccc(C(=O)Nc2ccc(Nc3cc(-c4[nH]c(SC)nc4C)ccn3)cc2)c1", "Y"],
  ["CN1CCN(c2ccc(OC(F)(F)F)c(Nc3ncc4c(n3)-c3c(c(C(N)=O)nn3CCO)CC4)c2)CC1", "N"],
  ["CN1CCN(CCOc2cc(OC3CCOCC3)c3c(Nc4c(Cl)ccc5c4OCO5)ncnc3c2)CC1", "N"],
  ["CC(C)NCC(O)COc1ccc(CCOCC2CC2)cc1.Cl (stereo unspecified) [BETAXOLOL HYDROCHLORIDE]", "Y"],
  ["c1cn2cc(-c3ccc4cn[nH]c4c3)nc(Nc3ccc(N4CCOCC4)cc3)c2n1", "N"],
  ["Cc1csc2c(N[C@@H](C)CN3CCN(S(=O)(=O)c4ccc(Cl)c(Cl)c4)CC3)ncnc12", "N"],
  ["CN1CCCC(n2nc(Cc3ccc(Cl)cc3)c3ccccc3c2=O)CC1.Cl (stereo unspecified) [AZELASTINE HYDROCHLORIDE]", "N"],
  ["CN(C)C(=O)/C(C#N)=C/c1ccc(-c2nc3cnc4[nH]ccc4c3n2C2CCCCC2)o1", "Y"],
  ["O=C1NCN(c2ccccc2)C12CCN(CCCOc1ccc(F)cc1)CC2 [SPIRAMIDE]", "Y"],
  ["CN1CCC[C@@H]1CCO[C@](C)(c1ccccc1)c1ccc(Cl)cc1.O=C(O)/C=C/C(=O)O [CLEMASTINE FUMARATE]", "N"],
  ["Cl.N#Cc1ccc2[nH]cc(CCCCN3CCN(c4ccc5oc(C(N)=O)cc5c4)CC3)c2c1 [VILAZODONE HYDROCHLORIDE]", "N"],
  ["Cn1cc(-c2[nH]c3cc(NC(=O)[C@H](N)C4CCCCC4)cc4c3c2C=NNC4=O)cn1", "N"],
  ["C=CC(=O)Nc1ccc2ncnc(Nc3ccc(OCc4cccc(F)c4)c(Cl)c3)c2c1.Cc1ccc(S(=O)(=O)O)cc1", "Y"],
  ["Cc1nc(-c2ccc(-c3ccc(C(=O)N4CCc5cc6c(cc54)C4(CCN(C)CC4)CO6)cc3)c(C)c2)no1", "N"]
]}

* * *

The entries below are paired with their reported Population Membrane Permeable-Phenotype (%).
test system: U2OS; experiment: Multiplex assay against U2OS; assay type: toxicity, cell-based; settings: human, 24 h, 1 µM, compound concentration 1 uM, replicate 1
Reported endpoint: Population Membrane Permeable-Phenotype (%)

{"columns": ["Molecule", "Reported measurement"],
 "data": [
  ["Cc1c(-c2ccc(O)cc2)n(Cc2ccc(OCCN3CCCCCC3)cc2)c2ccc(O)cc12", 3],
  ["CNc1nc(NCc2ccc(NS(C)(=O)=O)cc2Cl)cc(-c2ccccn2)n1", 3],
  ["C[C@@H](NCCCc1cccc(C(F)(F)F)c1)c1cccc2ccccc12.Cl [CINACALCET HYDROCHLORIDE]", 4],
  ["C[C@@]1(C(=O)Nc2ccc(F)nc2)CCCN1c1nc(Nc2cc(C3CC3)n[nH]2)c2cccn2n1", 63]
]}

* * *

system: HEK-293T; experiment: Multiplex assay against HEK293T; type: toxicity, cell-based; conditions: human, 24 h, 10 µM, compound concentration 10 uM, replicate 1
The entries below are paired with their reported Population Fragmented Nuclei (%).

{"columns": ["Compound", "Population Fragmented Nuclei (%)"],
 "data": [
  ["COc1cccc([C@@H](C)NCCCc2ccccc2Cl)c1.Cl [TECALCET HYDROCHLORIDE]", "11%"],
  ["Cc1nc(-c2cn3c(n2)-c2ccc(-c4cnn(C(C)(C)C(N)=O)c4)cc2OCC3)n(C(C)C)n1", "13%"],
  ["Cn1cc(-c2[nH]c3cc(NC(=O)[C@H](N)C4CCCCC4)cc4c3c2C=NNC4=O)cn1", "17%"],
  ["CN1CCCC(n2nc(Cc3ccc(Cl)cc3)c3ccccc3c2=O)CC1.Cl (configuration not stated) [AZELASTINE HYDROCHLORIDE]", "13%"],
  ["CC(C)(O)CNc1ncc(-c2ccnc(Nc3ccnc(Cl)c3)n2)c(CC2CC2)n1", "15%"],
  ["CN(C)CC#Cc1ccc(OCCCc2sc(N3CCc4cccc(C(=O)Nc5nc6ccccc6s5)c4C3)nc2C(=O)O)c(F)c1", "12%"],
  ["C=CC(=O)Nc1ccc2ncnc(Nc3ccc(OCc4cccc(F)c4)c(Cl)c3)c2c1.Cc1ccc(S(=O)(=O)O)cc1", "11%"],
  ["Cc1cc(C)cc(-c2cnc3cc(Cl)c(-c4cccc(O)c4)cc3c2OCCCN)c1", "22%"],
  ["CN(C)C(=O)/C(C#N)=C/c1ccc(-c2nc3cnc4[nH]ccc4c3n2C2CCCCC2)o1", "25%"],
  ["CN1CCN(c2ccc(OC(F)(F)F)c(Nc3ncc4c(n3)-c3c(c(C(N)=O)nn3CCO)CC4)c2)CC1", "7%"],
  ["c1cn2cc(-c3ccc4cn[nH]c4c3)nc(Nc3ccc(N4CCOCC4)cc3)c2n1", "75%"],
  ["Cc1c(-c2ccc(O)cc2)n(Cc2ccc(OCCN3CCCCCC3)cc2)c2ccc(O)cc12", "13%"],
  ["CN1CCN(CCOc2cc(OC3CCOCC3)c3c(Nc4c(Cl)ccc5c4OCO5)ncnc3c2)CC1", "12%"],
  ["C=CC(=O)Nc1cccc(C(=O)Nc2ccc(Nc3cc(-c4[nH]c(SC)nc4C)ccn3)cc2)c1", "20%"],
  ["CC(C)NCC(O)COc1ccc(CCOCC2CC2)cc1.Cl (configuration not stated) [BETAXOLOL HYDROCHLORIDE]", "11%"],
  ["O=C1NCN(c2ccccc2)C12CCN(CCCOc1ccc(F)cc1)CC2 [SPIRAMIDE]", "17%"],
  ["C[C@@H](NCCCc1cccc(C(F)(F)F)c1)c1cccc2ccccc12.Cl [CINACALCET HYDROCHLORIDE]", "15%"],
  ["Cc1[nH]c(/C=C2\\C(=O)Nc3ccc(S(=O)(=O)N(C)c4cccc(Cl)c4)cc32)c(C)c1C(=O)N1CCN(C)CC1", "15%"],
  ["COc1ncc(-c2ccc3nccc(-c4ccnnc4)c3c2)cc1NS(=O)(=O)c1ccc(F)cc1F", "14%"],
  ["CCN(CC)CCCCNc1ncc2cc(-c3cc(OC)cc(OC)c3)c(NC(=O)NC(C)(C)C)nc2n1", "17%"],
  ["Cc1csc2c(N[C@@H](C)CN3CCN(S(=O)(=O)c4ccc(Cl)c(Cl)c4)CC3)ncnc12", "12%"],
  ["Cc1nc(Nc2n[nH]c3c2CN(C(=O)N[C@H](CN(C)C)c2ccccc2)C3(C)C)c2sccc2n1", "15%"],
  ["CC[C@H](C)C(=O)O[C@H]1C[C@@H](C)C=C2C=C[C@H](C)[C@H](CC[C@@H]3C[C@@H](O)CC(=O)O3)[C@H]21", "12%"],
  ["OC1(c2ccc(Cl)cc2)CCN(Cc2c[nH]c3ccccc23)CC1", "14%"],
  ["Cl.N#Cc1ccc2[nH]cc(CCCCN3CCN(c4ccc5oc(C(N)=O)cc5c4)CC3)c2c1 [VILAZODONE HYDROCHLORIDE]", "19%"],
  ["CN(C)C(=O)N[C@H]1CC[C@H](CCN2CCN(c3cccc(Cl)c3Cl)CC2)CC1.Cl [CARIPRAZINE HYDROCHLORIDE]", "11%"],
  ["COc1cc(-n2cnc3cc(-c4ccc(Cl)cc4)sc3c2=O)ccc1OCCN1CCCC1", "31%"],
  ["CNc1nc(NCc2ccc(NS(C)(=O)=O)cc2Cl)cc(-c2ccccn2)n1", "10%"],
  ["Cc1nc(-c2ccc(-c3ccc(C(=O)N4CCc5cc6c(cc54)C4(CCN(C)CC4)CO6)cc3)c(C)c2)no1", "8%"],
  ["COc1cc2nccc(Oc3ccc(NC(=O)Nc4cc(C)on4)c(Cl)c3)c2cc1OC.O", "12%"],
  ["CN1CCC[C@@H]1CCO[C@](C)(c1ccccc1)c1ccc(Cl)cc1.O=C(O)/C=C/C(=O)O [CLEMASTINE FUMARATE]", "15%"],
  ["C=CC(=O)Nc1cc2c(Nc3ccc(F)c(Cl)c3)ncnc2cc1OCCCN1CCOCC1.Cl.Cl [CANERTINIB DIHYDROCHLORIDE]", "14%"]
]}
